protein stability index reference
B1: PTPRD (parent)
chain: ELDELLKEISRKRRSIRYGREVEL

Variants of: B1
protocol: protein stability index of a GFP-peptide fusion (GPS, HEK-293T) (PSI 1-6); higher = more stable;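 also: lentivirally expressed fusions sorted by FACS into six bins by GFP to DsRed ratio, PSI derived from sequencing read proportions per bin multiplied by bin number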
measurement context: c terminus: a fixed tail appended
Format: numeric value only, no unit, no commentary.

These solved cases illustrate the format of a correct answer.
item sequence	measured metric	experimental result
ELDELLKEISRKRRHIRYGREVEL [S15H]	protein stability index	2.89
ELTELLKEISRKRRSIRYGREVEL [D3T]	protein stability index	1.8
ELDELLKEISRKVRSIRYGREVEL [R13V]	protein stability index	1.55
ELDELLKEISRKRRSIRYGIEVEL [R20I]	protein stability index	2.11
ELDELLKEISRKRRSIRYGQEVEL [R20Q]	protein stability index	2.42
ELDELLKEISRKRRSIRYGRGVEL [E21G]	protein stability index	2.22
ELDELLKEISRKRRSIRYGREVEH [L24H]	protein stability index	2.91
ELDELLKEISRKRRSIRYGREVVL [E23V]	protein stability index	2.57
ELDELLKEISRKRQSIRYGREVEL [R14Q]	protein stability index	2.55
ELDELLKEYSRKRRSIRYGREVEL [I9Y]	protein stability index	2.63

Requested read-out: protein stability index. Entry: ELNELLKEISRKRRSIRYGREVEL [D3N]
3.35

Requested read-out: protein stability index. Entry: ELDELLKELSRKRRSIRYGREVEL [I9L]
2.21

Requested read-out: protein stability index. Entry: ELDELLKEIDRKRRSIRYGREVEL [S10D]
2.87

Requested read-out: protein stability index. Entry: ELDELLKEIKRKRRSIRYGREVEL [S10K]
2.17

Requested read-out: protein stability index. Entry: ELDELLKEISWKRRSIRYGREVEL [R11W]
2.3

Requested read-out: protein stability index. Entry: ELDELLKEISRKRRSIRYGREYEL [V22Y]
2.27

Requested read-out: protein stability index. Entry: ELDELLREISRKRRSIRYGREVEL [K7R]
2.27

Requested read-out: protein stability index. Entry: ELDELLKEISRKRRSIRYGREREL [V22R]
2.46

Requested read-out: protein stability index. Entry: ELDELLKEISRKRRSIRYGRETEL [V22T]
2.52
